Target: NS3 protease domain complexed to a modified form of the NS4A peptide (Pep4AK) (Hepatitis C virus genotype 1b)
Construct: NS3 protease domain (residues 1027–1206 of the HCV polyprotein)
Sequence (P26663 1027-1206, other chains not shown): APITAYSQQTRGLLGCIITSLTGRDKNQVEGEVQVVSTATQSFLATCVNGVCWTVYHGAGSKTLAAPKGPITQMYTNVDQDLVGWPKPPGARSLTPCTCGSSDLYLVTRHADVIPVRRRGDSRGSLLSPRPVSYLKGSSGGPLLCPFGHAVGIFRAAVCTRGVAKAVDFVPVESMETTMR
Assay: HCV NS3 protease domain/NS4A cofactor peptide assay (Assay B)
Type: biochemical
Details: Table 1; NS3 protease domain/Pep4AK, 4AB peptide substrate; read-out: Assay B
measurement.kind: IC50

Item: CC(=O)NS(=O)(=O)c1ccc(CCNC(=O)C(CS)NC(=O)C(CC(C)C)NC(=O)C(CCC(=O)O)NC(=O)OCC(C)C)cc1 (stereo not drawn) [Compound 160] | IC50: < 10 µM

Item: CCCCc1ccnc(C(=O)NS(=O)(=O)c2ccc(CCNC(=O)[C@H](CS)NC(=O)[C@H](CC(C)C)NC(=O)[C@H](CCC(=O)O)NC(=O)OCC(C)C)cc2)c1 [Compound 163] | IC50: < 10 µM

Item: CC(C)COC(=O)NC(CCC(=O)O)C(=O)NC(CC(C)C)C(=O)NC(CS)C(=O)NCCc1ccc(CCC(=O)O)cc1 (stereo not drawn) [Compound 156] | IC50: < 10 µM

Item: COC(=O)c1ccc(CCNC(=O)[C@H](CS)NC(=O)[C@H](CC(C)C)NC(=O)[C@H](CCC(=O)O)NC(=O)OCC(C)C)c(Cl)c1 [Compound 177] | IC50: < 10 µM

Item: CC(C)COC(=O)NC(CCC(=O)O)C(=O)NC(CC(C)C)C(=O)NC(CS)C(=O)NCCc1ccc(S(=O)(=O)NC(=O)c2ccccc2)cc1 (stereo not drawn) [Compound 162] | IC50: < 10 µM

Item: CC(C)COC(=O)NC(CCC(=O)O)C(=O)NC(CC(C)C)C(=O)NC(CS)C(=O)NCCc1ccccc1Oc1ccccc1 (stereo not drawn) [Compound 123] | IC50: < 100 µM

Item: CC(C)COC(=O)NC(CCC(=O)O)C(=O)NC(CC(C)C)C(=O)NC(CS)C(=O)NCCc1cccc(Br)c1 (stereo not drawn) [Compound 128] | IC50: < 100 µM

----------
Quick reference: IC50 of the listed items.
Molecular target: full length NS3 protein noncovalently complexed with the full-length NS4A cofactor protein (NS3/NS4A complex) (Hepatitis C virus genotype 1b)
Construct: full length NS3 protein spanning residues 1027–1657 of the HCV polyprotein
Experiment: Full-length NS3-NS4A heterodimer protein assay (Assay A)
Type: biochemical, hepatitis C virus (HCV)
Conditions: Table 5; full-length NS3/NS4A; read-out: AssayA

1) CC(C)COC(=O)N[C@H](C(=O)N1C[C@H](c2ccccc2)C[C@H]1C(=O)N[C@@H](CC(F)F)C(=O)NCCc1c(F)cc(C(=O)OC(C)C)cc1F)C(C)C
< 100 µM
2) COc1cccc(S(=O)(=O)[C@@H]2C[C@@H](C(=O)N[C@@H](CC(F)F)C(=O)NCCc3c(F)cc(C(=O)O)cc3F)N(C(=O)[C@@H](NC(=O)OCC(C)C)C(C)C)C2)c1
< 1 µM
3) CC(C)[C@H](NC(=O)OC1CCCC1)C(=O)N1C[C@H](C2CCCCC2)C[C@H]1C(=O)N[C@@H](CC(F)F)C(=O)NCCc1c(F)cc(C(=O)O)cc1F
< 1 µM

Item: `COCCOCO[C@@H]1C[C@@H](C(=O)N[C@@H](CC(F)F)C(=O)NCCc2c(F)cc(C(=O)O)cc2F)N(C(=O)[C@@H](NC(=O)OCC(C)C)C(C)C)C1` | IC50: < 10 µM

Item: `CC(C)COC(=O)N[C@H](C(=O)N1C[C@H](C2CCCCC2)C[C@H]1C(=O)N[C@@H](CC(F)F)C(=O)NCCc1c(F)cc(C(=O)NS(C)(=O)=O)cc1F)C(C)C` | IC50: < 1 µM

Item: CC(C)COC(=O)N[C@H](C(=O)N1C[C@H](c2ccccc2)C[C@H]1C(=O)N[C@@H](CC(F)F)C(=O)NCCc1cccc(NC(C(=O)O)c2ccccc2)c1)C(C)C (mixture of isomers) | IC50: < 10 µM

Item: CC(C)COC(=O)N[C@@H](CCC(=O)O)C(=O)N1C[C@H](c2ccccc2)CC1C(=O)N[C@@H](CS)C(=O)NCCc1ccccc1Cl (stereo partly drawn) | IC50: < 10 µM

Item: `CC(C)COC(=O)N[C@H](C(=O)N1C[C@H](c2ccccc2)C[C@H]1C(=O)N[C@@H](CS)C(=O)NCCc1ccc(C(=O)O)cc1)C(C)C` | IC50: < 10 µM

Item: CC(C)COC(=O)N[C@H](C(=O)N1C[C@H](c2ccccc2)C[C@H]1C(=O)N[C@@H](CC(F)F)C(=O)NCCc1cccc(OC(C(=O)O)c2ccccc2)c1)C(C)C (mixture of isomers) | IC50: < 10 µM

----------
Biological target: NS3 protease domain complexed to a modified form of the NS4A peptide (Pep4AK) (Hepatitis C virus genotype 1b)
Construct: NS3 protease domain (residues 1027–1206 of the HCV polyprotein)
Assay: HCV NS3 protease domain/NS4A cofactor peptide assay (Assay B)
Type: biochemical
Details: NS3 protease domain/NS4A cofactor peptide assay; read-out: Assay B (IC50 class)
Quick reference: IC50 of the listed items.

1) CC(C)C[C@H](NC(=O)C1(Cc2cccc(C(=O)O)c2)CCc2ccccc2N1)C(=O)N[C@@H](CC(F)F)C(=O)NCCc1ccc(C(=O)O)cc1Cl (single isomer, unassigned) [Compound 712a]
< 100 µM

Item: CC(C)C[C@H](NC(=O)C1(Cc2cccc(C(=O)O)c2)Cc2ccccc2N1)C(=O)N[C@@H](CS)C(=O)NCCc1ccc(C(=O)O)cc1 (mixture of isomers) | IC50: < 100 µM

Item: CC(C)CC(NC(=O)c1ccccc1-c1ccccc1C(=O)O)C(=O)NC(CS)C(=O)NCCc1ccc(Cl)cc1Cl (stereo not shown) | IC50: < 100 µM

Item: CCOC(=O)C=Cc1cccc(CCNC(=O)C(CC(F)F)NC(=O)C(CC(C)C)NC(=O)c2ccccc2-c2ccccc2C(=O)O)c1 (stereo not shown) | IC50: < 100 µM

Item: CC(C)C[C@H](NC(=O)C1(Cc2ccc(C(=O)O)s2)CCc2ccccc2N1)C(=O)N[C@@H](CC(F)F)C(=O)NCCc1ccc(C(=O)O)cc1Cl (single isomer, unassigned) [Compound 711a] | IC50: < 100 µM

Item: CC(C)C[C@H](NC(=O)C1(Cc2ccsc2C(=O)O)Cc2ccccc2N1)C(=O)N[C@@H](CC(F)F)C(=O)NCCc1ccc(C(=O)O)cc1Cl (single isomer, unassigned) | IC50: < 10 µM

Item: CC(C)C[C@H](NC(=O)C1(Cc2ccc(C(=O)O)cc2)Cc2ccccc2N1)C(=O)N[C@@H](CS)C(=O)NCCc1ccc(C(=O)O)cc1 (single isomer, unassigned) | IC50: < 100 µM

----------
Target: full length NS3 protein noncovalently complexed with the full-length NS4A cofactor protein (NS3/NS4A complex) (Hepatitis C virus genotype 1b, UniProt P26663)
Construct: full length NS3 protein spanning residues 1027–1657 of the HCV polyprotein
Sequence (P26663 1027-1657): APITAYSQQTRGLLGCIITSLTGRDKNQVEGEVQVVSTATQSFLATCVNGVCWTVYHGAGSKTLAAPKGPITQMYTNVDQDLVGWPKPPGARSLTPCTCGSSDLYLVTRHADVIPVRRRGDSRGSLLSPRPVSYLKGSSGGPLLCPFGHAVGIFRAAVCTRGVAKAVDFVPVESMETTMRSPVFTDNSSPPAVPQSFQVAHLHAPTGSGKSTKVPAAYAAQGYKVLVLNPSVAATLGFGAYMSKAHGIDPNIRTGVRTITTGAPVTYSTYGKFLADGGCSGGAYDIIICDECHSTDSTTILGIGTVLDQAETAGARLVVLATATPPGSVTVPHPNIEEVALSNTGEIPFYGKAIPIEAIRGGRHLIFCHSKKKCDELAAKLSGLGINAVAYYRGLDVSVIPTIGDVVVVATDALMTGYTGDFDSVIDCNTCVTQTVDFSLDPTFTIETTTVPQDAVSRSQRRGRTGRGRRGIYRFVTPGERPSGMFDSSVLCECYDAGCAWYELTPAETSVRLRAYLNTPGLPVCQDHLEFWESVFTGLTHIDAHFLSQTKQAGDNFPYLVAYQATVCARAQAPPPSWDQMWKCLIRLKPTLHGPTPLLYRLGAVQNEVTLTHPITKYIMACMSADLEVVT
Sequence (P26663 1658-1711): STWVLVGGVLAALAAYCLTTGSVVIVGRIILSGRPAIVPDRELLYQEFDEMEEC
Test: Full-length NS3-NS4A heterodimer protein assay (Assay A)
Assay type: biochemical, hepatitis C virus (HCV)
Conditions: Table 5; full-length NS3/NS4A; read-out: AssayA
Procedure: Full-Length NS3-NS4A Heterodimer Protein Assay (Assay A) […] In this assay the full length NS3 protein spanning residues 1027–1657 of the HCV polyprotein, noncovalently complexed with the full-length NS4A cofactor protein (residues 1658–1711) was used. […] Cleavage was determined by HPLC using a Merck-Hitachi chromatograph equipped with an autosampler. […] Peak detection was done by monitoring both the absorbance at 220 nm and tryptophan fluorescence (λex=280 nm, λem=350 nm). […]
measurement.kind: IC50

1. O=C(O)CC[C@H](NC(=O)[C@@H](O)c1ccccc1)C(=O)N1C[C@H](c2ccccc2)C[C@H]1C(=O)N[C@@H](CS)C(=O)NCCc1ccc(C(=O)O)cc1 [Compound 515]
< 100 µM

Item: CC(C)COC(=O)N[C@H](C(=O)N1C[C@H](S(=O)(=O)C2CCCCC2)C[C@H]1C(=O)N[C@@H](CC(F)F)C(=O)NCCc1c(F)cc(-c2nn[nH]n2)cc1F)C(C)C [Compound 556] | IC50: < 1 µM

Item: CC(C)COC(=O)N[C@@H](CCC(=O)O)C(=O)N1C[C@H](c2ccccc2)C[C@H]1C(=O)N[C@@H](CS)C(=O)NCCc1ccc(C(=O)O)cc1 [Compound 512] | IC50: < 100 µM

Item: CC(C)COC(=O)N[C@H](C(=O)N1C[C@H](C2CCCCC2)C[C@H]1C(=O)N[C@@H](CC(F)F)C(=O)NCCc1ccc(C(=O)O)cc1Cl)C(C)C [Compound 532] | IC50: < 1 µM

Item: CC(C)COC(=O)N[C@H](C(=O)N1C[C@H]([S+]([O-])C2CCCCC2)C[C@H]1C(=O)N[C@@H](CC(F)F)C(=O)NCCc1c(F)cc(C(=O)O)cc1F)C(C)C (mixture of isomers) [Compound 552] | IC50: < 1 µM
